- System: ML-2
- assay_summary: cell viability (% survival relative to DMSO control, bortezomib = 0%); higher = less cytotoxic
- test_parameters: 100 nM; 72 h
readout_kind: cell viability (%)
Express your answer in %, writing the number without its unit.

Check the records and state cell viability for O=C(c1ccc(OCCN2CCCCC2)cc1)c1c(-c2ccc(O)cc2)sc2cc(O)ccc12 [Raloxifene]
101

Check the records and state cell viability for C[C@]12O[C@H](C[C@]1(O)CO)n1c3ccccc3c3c4c(c5c6ccccc6n2c5c31)CNC4=O [Lestaurtinib]
61.4

Check the records and state cell viability for Nc1ncnc2c1ncn2[C@@H]1O[C@H](CSCC[C@H](N)C(=O)O)[C@@H](O)[C@H]1O [S-Adenosyl Homocysteine]
101

Check the records and state cell viability for N[C@](CCCCB(O)O)(CCN1CCCCC1)C(=O)O [Arginase inhibitor 1]
93.1

Check the records and state cell viability for O=C1Nc2ccccc2/C1=C\NCCc1ccc(O)c(O)c1 [AC1NZZMF]
101

Check the records and state cell viability for Clc1ccc2c(c1Cl)CNCC2
90

Check the records and state cell viability for CCOC(=O)[C@H]1O[C@@H]1C(=O)N[C@@H](CC(C)C)C(=O)NCCC(C)C [Aloxistatin]
87.1

Check the records and state cell viability for O=C1Oc2ccccc2C(=O)C1CC1C(=O)Oc2ccccc2C1=O (stereo not given) [Dicumarol]
99.2

Check the records and state cell viability for O=C(O)CC[C@H](NC(=O)c1ccc([N+](=O)[O-])cc1)C(=O)O [(S)-2-(4-Nitrobenzamido)pentanedioic acid]
101

Check the records and state cell viability for Cc1c(-c2ccccc2)oc2c(C(=O)OCCN3CCCCC3)cccc2c1=O.Cl [Flavoxate]
105

Check the records and state cell viability for Sc1ncnc2nc[nH]c12 [6-mercaptopurine]
87.9

Check the records and state cell viability for Oc1cc(Cl)ccc1Oc1ccc(Cl)cc1Cl [Triclosan]
102

Check the records and state cell viability for Clc1ccc(COC(Cn2ccnc2)c2ccc(Cl)cc2Cl)cc1 (stereo not given) [Econazole]
112

Check the records and state cell viability for O=C(O)c1cc2sccc2[nH]1 [4H-thieno[3,2-b]pyrrole-5-carboxylic acid]
84.2

Check the records and state cell viability for C=CCc1ccc2c(c1O)C(=O)c1ccccc1C2=O [R162]
97.8

* * *

- Tested on: MV4-11
- assay_summary: cell viability (% survival relative to DMSO control, bortezomib = 0%); higher = less cytotoxic
- test_parameters: 10 nM; 72 h
readout_kind: cell viability

Check the records and state cell viability for CC(Cc1ccc(O)c(O)c1)C(C)Cc1ccc(O)c(O)c1 (stereo not drawn)
91.6%

Check the records and state cell viability for Clc1ccc2c(c1Cl)CNCC2
114%

Check the records and state cell viability for O=P(O)(O)C(O)(Cn1ccnc1)P(=O)(O)O
104%

* * *

- Tested on: KCL-22
- assay_summary: cell viability (% survival relative to DMSO control, bortezomib = 0%); higher = less cytotoxic
- test_parameters: 100 nM; 72 h
I'd be grateful if you could share measured cell viability for these entries.
Express your answer in %, writing the number without its unit.

Check the records and state cell viability for CC(C(=O)O)C(=O)O [Methylmalonate]
112

Check the records and state cell viability for CC(Cc1ccc(O)c(O)c1)C(C)Cc1ccc(O)c(O)c1 (centres undefined)
120

Check the records and state cell viability for Sc1ncnc2nc[nH]c12
105

Check the records and state cell viability for O=C(O)C(S)=Cc1c[nH]c2ccc(F)cc12
102

Check the records and state cell viability for O=C(O)c1cc2sccc2[nH]1 [4H-thieno[3,2-b]pyrrole-5-carboxylic acid]
84.7

Check the records and state cell viability for Nc1ncnc2c1ncn2[C@@H]1O[C@H](CSCC[C@H](N)C(=O)O)[C@@H](O)[C@H]1O
98.5

Check the records and state cell viability for C[C@]12O[C@H](C[C@]1(O)CO)n1c3ccccc3c3c4c(c5c6ccccc6n2c5c31)CNC4=O
59.6

Check the records and state cell viability for O=C(O)C(Cl)Cl [Dichloroacetate]
93.4

Check the records and state cell viability for CCOc1ccc(Cc2cc([C@@H]3O[C@H](CO)[C@@H](O)[C@H](O)[C@H]3O)ccc2Cl)cc1
54.2

Check the records and state cell viability for Cc1c(-c2ccccc2)oc2c(C(=O)OCCN3CCCCC3)cccc2c1=O.Cl [Flavoxate]
102

Check the records and state cell viability for C1CCc2nnc(C34CC5CC(CC(C5)C3)C4)n2CC1
95.8

Check the records and state cell viability for CC(/C=C1\SC(=S)N(CC(=O)O)C1=O)=C\c1ccccc1
100

Check the records and state cell viability for O=C(O)CCc1ccc(NCc2cccc(Oc3ccccc3)c2)cc1
89.6

Check the records and state cell viability for [N-]=[N+]=CC(=O)CC[C@H](N)C(=O)O
109

* * *

- Tested on: LAMA-84
- assay_summary: cell viability (% survival relative to DMSO control, bortezomib = 0%); higher = less cytotoxic
- test_parameters: 10 nM; 72 h
readout_kind: cell viability (%)
Express your answer in %, writing the number without its unit.

Check the records and state cell viability for CCCc1nn(C)c2c(O)nc(-c3cc(S(=O)(=O)N4CCN(C)CC4)ccc3OCC)nc12
98.8

Check the records and state cell viability for O=C(c1ccc(OCCN2CCCCC2)cc1)c1c(-c2ccc(O)cc2)sc2cc(O)ccc12
102

Check the records and state cell viability for Cc1coc2c1C(=O)C(=O)c1c-2ccc2c(C)cccc12
105

Check the records and state cell viability for O=C(O)c1nn(Cc2ccc(Cl)cc2Cl)c2ccccc12
94.6

Check the records and state cell viability for C[C@H]1O[C@@H](O[C@H]2[C@@H](O)C[C@H](O[C@H]3[C@@H](O)C[C@H](O[C@H]4CC[C@@]5(C)[C@H](CC[C@@H]6[C@@H]5C[C@@H](O)[C@]5(C)[C@@H](C7=CC(=O)OC7)CC[C@]65O)C4)O[C@@H]3C)O[C@@H]2C)C[C@H](O)[C@@H]1O
115

Check the records and state cell viability for C1CCC(C(CC2CCCCN2)C2CCCCC2)CC1.O=C(O)/C=C\C(=O)O (centres undefined)
89.1

Check the records and state cell viability for N[C@](CCCCB(O)O)(CCN1CCCCC1)C(=O)O
102

Check the records and state cell viability for CC(Cc1ccc(O)c(O)c1)C(C)Cc1ccc(O)c(O)c1 (centres undefined)
95.7

Check the records and state cell viability for O=P(O)(O)C(O)(Cn1ccnc1)P(=O)(O)O
104

Check the records and state cell viability for O=C(O)CCc1ccc(NCc2cccc(Oc3ccccc3)c2)cc1
98.6

Check the records and state cell viability for O=C(O)C(S)=Cc1c[nH]c2ccc(F)cc12
98.2

Check the records and state cell viability for [N-]=[N+]=CC(=O)CC[C@H](N)C(=O)O
98.8

Check the records and state cell viability for CCOC(=O)[C@@]1(CCCCCCOc2ccc(Cl)cc2)CO1
110

Check the records and state cell viability for Nc1ccn([C@@H]2O[C@H](CO)[C@@H](O)[C@@H]2O)c(=O)n1
80.3

* * *

- Tested on: MOLM-13
- assay_summary: cell viability (% survival relative to DMSO control, bortezomib = 0%); higher = less cytotoxic
- test_parameters: 100 nM; 72 h
readout_kind: cell viability (%)
Express your answer in %, writing the number without its unit.

Quote MOLM-13 cell viability for entry Cc1coc2c1C(=O)C(=O)c1c-2ccc2c(C)cccc12 .
127

Quote MOLM-13 cell viability for entry CCOc1ccc(Cc2cc([C@@H]3O[C@H](CO)[C@@H](O)[C@H](O)[C@H]3O)ccc2Cl)cc1 .
91.1

Quote MOLM-13 cell viability for entry O=c1c2ccccc2[se]n1-c1ccccc1 .
108

Quote MOLM-13 cell viability for entry CC(C(=O)O)C(=O)O [Methylmalonate] .
124

Quote MOLM-13 cell viability for entry O=C(O)c1cc2sccc2[nH]1 [4H-thieno[3,2-b]pyrrole-5-carboxylic acid] .
89.3

Quote MOLM-13 cell viability for entry Clc1ccc2c(c1Cl)CNCC2 .
70.3

Quote MOLM-13 cell viability for entry COc1cc2c(NC3CCN(C)CC3)nc(N3CCCN(C)CC3)nc2cc1OCCCN(C)C .
92.7

Quote MOLM-13 cell viability for entry COc1c(C)c2c(c(O)c1C/C=C(\C)CCC(=O)O)C(=O)OC2 .
70.9

Quote MOLM-13 cell viability for entry O=C(O)CCc1ccc(NCc2cccc(Oc3ccccc3)c2)cc1 .
92.1

Quote MOLM-13 cell viability for entry [N-]=[N+]=CC(=O)CC[C@H](N)C(=O)O .
119

Quote MOLM-13 cell viability for entry CC(/C=C1\SC(=S)N(CC(=O)O)C1=O)=C\c1ccccc1 .
106

* * *

- Test system: myeloid leukemia patient primary cells Pat.13
- assay_summary: cell viability (% survival relative to DMSO control); higher = less cytotoxic
- test_parameters: 10 nM; 72 h
readout_kind: cell viability (%)
Express your answer in %, writing the number without its unit.

Check the records and state cell viability for Cc1noc2c1-c1ccccc1C(c1ccc(Cl)cc1)=N[C@H]2CC(N)=O [CPI-0610]
95.2

Check the records and state cell viability for Clc1ccc(COC(Cn2ccnc2)c2ccc(Cl)cc2Cl)cc1 (centres undefined) [Econazole]
95

Check the records and state cell viability for Sc1ncnc2nc[nH]c12 [6-mercaptopurine]
88.3

Check the records and state cell viability for CCOC(=O)N1c2ccc(C(F)(F)F)cc2[C@@H](N(Cc2cc(C(F)(F)F)cc(C(F)(F)F)c2)C(=O)OC)C[C@H]1CC [Torcetrapib]
71.5
